assay: Thermodynamic aqueous solubility; type: physicochemical; conditions: test solvent pH 5.0, 25 °C, pH 5, aqueous buffer, thermodynamic from solid, test solvent pH 5.0, 25° C., 24 hours; read-out: Solubility mg/ml Free Base equivalent

>  <compound>
COc1ccc(CC(=O)O)cc1Oc1ccc(NC(=O)C(C)(C)C)cc1CSC(C)(C)C [Compound 1]

>  <units text>
mg/mL

>  <solubility at 24 h>
0.027

$$$$

---

experiment: Regional dosing study in rat (pharmacokinetics); type: in vivo; conditions: Sprague-Dawley, in vivo, iv, 2 mg/kg
Counter-ions that a name gives are not always drawn.

>  <molecule>
COc1ccc(CC(=O)O)cc1Oc1ccc(NC(=O)C(C)(C)C)cc1CSC(C)(C)C [Compound 2, sodium salt]

>  <Tmax, min>
4.8

$$$$
